Source: patent US20260217767A1

- Assayed Target: RPMI 8866 cells (Homo sapiens, UniProt P13612+P26010)
- Sequence (P13612 34-1032): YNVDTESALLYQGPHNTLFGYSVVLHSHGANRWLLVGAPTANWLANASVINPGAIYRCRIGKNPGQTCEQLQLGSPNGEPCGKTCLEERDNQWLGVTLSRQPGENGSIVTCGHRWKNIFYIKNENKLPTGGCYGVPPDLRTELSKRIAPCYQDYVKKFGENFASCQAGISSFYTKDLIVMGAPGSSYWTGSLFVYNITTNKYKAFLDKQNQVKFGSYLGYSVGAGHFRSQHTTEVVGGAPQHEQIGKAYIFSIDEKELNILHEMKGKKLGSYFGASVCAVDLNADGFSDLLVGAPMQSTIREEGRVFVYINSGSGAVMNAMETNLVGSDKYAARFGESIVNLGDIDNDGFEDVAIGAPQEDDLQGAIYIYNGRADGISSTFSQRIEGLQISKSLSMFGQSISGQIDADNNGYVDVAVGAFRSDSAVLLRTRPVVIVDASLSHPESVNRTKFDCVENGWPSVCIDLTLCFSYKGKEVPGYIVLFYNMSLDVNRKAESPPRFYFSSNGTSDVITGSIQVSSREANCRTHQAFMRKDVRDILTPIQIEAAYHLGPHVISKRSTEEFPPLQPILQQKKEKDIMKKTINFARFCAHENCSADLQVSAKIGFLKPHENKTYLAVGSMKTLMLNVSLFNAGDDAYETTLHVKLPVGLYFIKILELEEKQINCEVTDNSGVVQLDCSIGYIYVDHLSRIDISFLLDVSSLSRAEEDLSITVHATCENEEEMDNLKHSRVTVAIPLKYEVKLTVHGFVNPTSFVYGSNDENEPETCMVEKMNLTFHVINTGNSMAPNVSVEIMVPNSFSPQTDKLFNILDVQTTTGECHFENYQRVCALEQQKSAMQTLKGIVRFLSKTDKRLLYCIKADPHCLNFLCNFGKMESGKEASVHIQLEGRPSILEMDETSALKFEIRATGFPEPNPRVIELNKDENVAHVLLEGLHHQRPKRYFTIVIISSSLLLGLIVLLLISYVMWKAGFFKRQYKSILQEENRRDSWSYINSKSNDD
- Sequence (P26010 20-798): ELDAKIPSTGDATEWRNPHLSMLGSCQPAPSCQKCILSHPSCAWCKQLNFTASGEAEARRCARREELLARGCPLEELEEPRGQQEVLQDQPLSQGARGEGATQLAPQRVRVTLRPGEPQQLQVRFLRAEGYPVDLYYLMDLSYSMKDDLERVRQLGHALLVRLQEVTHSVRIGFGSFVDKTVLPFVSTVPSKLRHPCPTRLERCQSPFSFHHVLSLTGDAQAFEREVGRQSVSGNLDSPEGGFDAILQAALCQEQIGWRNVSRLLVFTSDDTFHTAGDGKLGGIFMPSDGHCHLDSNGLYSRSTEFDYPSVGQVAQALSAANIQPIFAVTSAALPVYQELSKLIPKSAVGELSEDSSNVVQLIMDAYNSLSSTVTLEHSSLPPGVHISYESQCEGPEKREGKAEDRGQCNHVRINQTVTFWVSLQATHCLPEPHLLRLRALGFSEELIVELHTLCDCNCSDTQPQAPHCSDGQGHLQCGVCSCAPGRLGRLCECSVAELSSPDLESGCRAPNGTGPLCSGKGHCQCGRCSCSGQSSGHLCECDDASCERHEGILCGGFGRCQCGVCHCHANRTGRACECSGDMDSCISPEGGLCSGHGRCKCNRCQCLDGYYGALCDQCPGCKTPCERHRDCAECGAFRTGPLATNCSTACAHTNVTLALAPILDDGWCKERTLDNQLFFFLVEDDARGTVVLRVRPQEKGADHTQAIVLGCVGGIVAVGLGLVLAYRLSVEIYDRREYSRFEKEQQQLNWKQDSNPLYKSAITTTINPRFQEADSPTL
- Assay Procedure: α4β7-MAdCAM Cell Adhesion Assay
- Format: cell-based
- Condition Parameters: thioether peptide dimers, Table 7; read-out: Cell-Adhesion A4B7
pIC50: −log10 of the molar value. Where a SMILES comes first, the peptide text is derived from it.
Measure: pIC50

Req: Requested field: pIC50. Item: CC(C)C[C@@H]1NC(=O)[C@H]([C@@H](C)O)NC(=O)[C@H](CC(=O)O)NC(=O)[C@H](CO)NC(=O)[C@H](CCCNC(=N)N)N(C)C(=O)c2ccccc2CSC(C)(C)[C@@H](C(=O)N[C@@H](Cc2c[nH]c3ccccc23)C(=O)N[C@H](CCC(=O)O)C(=O)N[C@H](Cc2ccccc2)C(=O)N[C@H](CCCCN)C(N)=O)NC1=O [compound 198] (HELM PEPTIDE1{[meR].S.D.T.L.[Pen].W.[dE].[dF].[dK].[am]}|CHEM1{[O=C(c1ccccc1C[*:2])[*:1]]}$PEPTIDE1,CHEM1,1:R1-1:R1|PEPTIDE1,CHEM1,6:R3-1:R2$$$V2.0)
Resp: > 7.60

----------
- Assayed Target: rh integrin α4β7 (Homo sapiens, UniProt P13612+P26010)
- Construct: purchased R&D Systems 5397-A30
- Sequence (P13612 34-977 limits assumed): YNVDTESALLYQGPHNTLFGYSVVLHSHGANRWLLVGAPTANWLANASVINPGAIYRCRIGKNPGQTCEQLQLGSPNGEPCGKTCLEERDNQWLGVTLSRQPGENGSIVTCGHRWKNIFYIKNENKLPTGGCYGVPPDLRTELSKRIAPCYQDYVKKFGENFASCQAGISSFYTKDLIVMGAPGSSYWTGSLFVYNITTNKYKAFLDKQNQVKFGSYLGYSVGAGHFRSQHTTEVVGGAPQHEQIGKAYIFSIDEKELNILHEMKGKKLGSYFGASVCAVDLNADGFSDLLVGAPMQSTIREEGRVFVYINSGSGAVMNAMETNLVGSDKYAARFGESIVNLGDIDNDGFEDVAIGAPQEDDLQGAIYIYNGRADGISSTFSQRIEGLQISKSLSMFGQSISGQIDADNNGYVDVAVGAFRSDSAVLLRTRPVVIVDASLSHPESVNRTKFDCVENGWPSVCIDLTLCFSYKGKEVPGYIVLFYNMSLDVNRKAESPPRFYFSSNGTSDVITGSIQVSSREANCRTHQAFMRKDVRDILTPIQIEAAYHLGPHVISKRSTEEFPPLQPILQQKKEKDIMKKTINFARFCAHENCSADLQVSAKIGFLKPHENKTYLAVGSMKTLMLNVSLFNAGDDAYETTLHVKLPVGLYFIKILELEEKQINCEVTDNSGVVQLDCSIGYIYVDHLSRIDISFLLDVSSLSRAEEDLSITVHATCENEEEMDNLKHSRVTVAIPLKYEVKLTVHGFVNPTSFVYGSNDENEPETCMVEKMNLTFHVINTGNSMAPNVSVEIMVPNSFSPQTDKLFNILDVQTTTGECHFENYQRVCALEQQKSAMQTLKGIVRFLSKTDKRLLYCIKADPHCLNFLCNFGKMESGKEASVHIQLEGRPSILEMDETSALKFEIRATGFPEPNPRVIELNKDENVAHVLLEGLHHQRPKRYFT
- Sequence (P26010 20-723 limits assumed): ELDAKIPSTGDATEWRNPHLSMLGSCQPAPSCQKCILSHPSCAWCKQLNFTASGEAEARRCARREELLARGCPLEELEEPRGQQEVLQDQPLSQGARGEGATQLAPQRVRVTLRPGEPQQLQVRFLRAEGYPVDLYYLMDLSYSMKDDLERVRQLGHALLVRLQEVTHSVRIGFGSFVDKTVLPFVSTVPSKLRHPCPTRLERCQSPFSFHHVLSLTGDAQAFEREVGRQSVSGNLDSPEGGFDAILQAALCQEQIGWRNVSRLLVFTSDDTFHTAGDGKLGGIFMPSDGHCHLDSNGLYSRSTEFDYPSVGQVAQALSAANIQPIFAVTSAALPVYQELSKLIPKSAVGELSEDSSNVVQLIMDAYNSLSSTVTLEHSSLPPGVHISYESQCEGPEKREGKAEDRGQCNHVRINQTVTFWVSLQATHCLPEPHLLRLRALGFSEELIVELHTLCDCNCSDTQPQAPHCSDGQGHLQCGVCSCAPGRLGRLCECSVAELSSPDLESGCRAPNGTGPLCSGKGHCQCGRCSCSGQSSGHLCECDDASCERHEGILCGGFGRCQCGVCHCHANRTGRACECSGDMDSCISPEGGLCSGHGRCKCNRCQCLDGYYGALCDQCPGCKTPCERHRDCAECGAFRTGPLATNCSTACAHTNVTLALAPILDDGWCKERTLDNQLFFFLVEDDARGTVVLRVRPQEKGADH
- Assay Procedure: α4β7-MAdCAM Competition ELISA
- Type: binding
- Condition Parameters: thioether monomer peptides, Table 6; read-out: ELISA A4B7
pIC50: −log10 of the molar value. Where a SMILES comes first, the peptide text is derived from it.
Measure: pIC50

Req: So what does the record say about pIC50 for CC(C)C[C@@H]1NC(=O)[C@H]([C@@H](C)O)NC(=O)[C@H](CC(=O)O)NC(=O)[C@H](CO)NC(=O)[C@H](CCCNC(=N)N)N(C)C(=O)c2ccccc2CSC(C)(C)[C@@H](C(=O)N[C@@H](Cc2c[nH]c3ccccc23)C(=O)N[C@H](CCC(=O)O)C(=O)N[C@@H](CCN)C(N)=O)NC1=O [compound 95] (HELM PEPTIDE1{[meR].S.D.T.L.[Pen].W.[dE].[Dab].[am]}|CHEM1{[O=C(c1ccccc1C[*:2])[*:1]]}$PEPTIDE1,CHEM1,1:R1-1:R1|PEPTIDE1,CHEM1,6:R3-1:R2$$$V2.0) ?
Resp: > 7.60

----------
- Assayed Target: RPMI 8866 cells (Homo sapiens, UniProt P13612+P26010)
- Assay Procedure: α4β7-MAdCAM Cell Adhesion Assay
- Format: cell-based
- Condition Parameters: thioether monomer peptides, Table 6; read-out: Cell-Adhesion A4B7
pIC50: −log10 of the molar value. Where a SMILES comes first, the peptide text is derived from it.
Measure: pIC50

CC(C)C[C@@H]1NC(=O)[C@H]([C@@H](C)O)NC(=O)[C@H](CC(=O)O)NC(=O)[C@H](CO)NC(=O)[C@H](CCCNC(=N)N)N(C)C(=O)c2ccccc2CSC(C)(C)[C@@H](C(=O)N[C@@H](Cc2c[nH]c3ccccc23)C(=O)N[C@H](CCC(=O)O)C(=O)N[C@@H](CO)C(N)=O)NC1=O [compound 100] (HELM PEPTIDE1{[meR].S.D.T.L.[Pen].W.[dE].S.[am]}|CHEM1{[O=C(c1ccccc1C[*:2])[*:1]]}$PEPTIDE1,CHEM1,1:R1-1:R1|PEPTIDE1,CHEM1,6:R3-1:R2$$$V2.0)
7.00 to 7.60

Continue with the next compound.
Req: Param item = CC(C)C[C@@H]1NC(=O)[C@H]([C@@H](C)O)NC(=O)[C@H](CC(=O)O)NC(=O)[C@H](CO)NC(=O)[C@H](CCCNC(=N)N)N(C)C(=O)c2ccccc2CSC(C)(C)[C@@H](C(=O)N[C@@H](Cc2c[nH]c3ccccc23)C(=O)N[C@H](CCC(=O)O)C(=O)N[C@@H](Cc2c[nH]cn2)C(N)=O)NC1=O [compound 102] (HELM PEPTIDE1{[meR].S.D.T.L.[Pen].W.[dE].H.[am]}|CHEM1{[O=C(c1ccccc1C[*:2])[*:1]]}$PEPTIDE1,CHEM1,1:R1-1:R1|PEPTIDE1,CHEM1,6:R3-1:R2$$$V2.0) ; retrieve measured pIC50.
Resp: 7.00 to 7.60
